FYI, the data here is from ChEMBL document CHEMBL4689842.

system: U2OS; assay: Multiplex assay against U2OS; assay type: toxicity, cell-based; settings: human, 48 h, 10 µM, compound concentration 10 uM, replicate 1
Threshold check on Population Mitochondria Different-Phenotype (%): strictly below 40% is rule met; on or above 40% is rule not met.

Problem: Regarding `Cc1cc(C)cc(-c2cnc3cc(Cl)c(-c4cccc(O)c4)cc3c2OCCCN)c1` , kindly confirm whether its Population Mitochondria Different-Phenotype (%) is beneath 40%.
Result: rule not met

Problem: Regarding `CN(C)CC#Cc1ccc(OCCCc2sc(N3CCc4cccc(C(=O)Nc5nc6ccccc6s5)c4C3)nc2C(=O)O)c(F)c1` , kindly confirm whether its Population Mitochondria Different-Phenotype (%) is beneath 40%.
Result: rule met

Problem: Regarding CN(C)C(=O)N[C@H]1CC[C@H](CCN2CCN(c3cccc(Cl)c3Cl)CC2)CC1.Cl [CARIPRAZINE HYDROCHLORIDE] , kindly confirm whether its Population Mitochondria Different-Phenotype (%) is beneath 40%.
Result: rule not met

Problem: Regarding `c1cn2cc(-c3ccc4cn[nH]c4c3)nc(Nc3ccc(N4CCOCC4)cc3)c2n1` , kindly confirm whether its Population Mitochondria Different-Phenotype (%) is beneath 40%.
Result: rule met

Problem: Regarding `CNCc1ccccc1-c1csc([C@H](C)Nc2nc(C)nc3cc(OC)c(OC)cc23)c1` , kindly confirm whether its Population Mitochondria Different-Phenotype (%) is beneath 40%.
Result: rule not met

====

tested on: U2OS; assay: Multiplex assay against U2OS; format: toxicity, cell-based; details: human, 24 h, 1 µM, compound concentration 1 uM, replicate 1
Population Hoechst High Intensity Objects (%) of 7% or higher: criterion met. Under 7%: criterion not met.

Problem: Does CN1CCC[C@@H]1CCO[C@](C)(c1ccccc1)c1ccc(Cl)cc1.O=C(O)/C=C/C(=O)O [CLEMASTINE FUMARATE] have a reported Population Hoechst High Intensity Objects (%) of at least 7%?
Result: criterion not met

Problem: Does Cc1nc(-c2ccc(-c3ccc(C(=O)N4CCc5cc6c(cc54)C4(CCN(C)CC4)CO6)cc3)c(C)c2)no1 [SB-224289] have a reported Population Hoechst High Intensity Objects (%) of at least 7%?
Result: criterion not met

Problem: Does CN1CCCC(n2nc(Cc3ccc(Cl)cc3)c3ccccc3c2=O)CC1.Cl (stereo not given) [AZELASTINE HYDROCHLORIDE] have a reported Population Hoechst High Intensity Objects (%) of at least 7%?
Result: criterion not met

Problem: Does `CN(C)C(=O)/C(C#N)=C/c1ccc(-c2nc3cnc4[nH]ccc4c3n2C2CCCCC2)o1` have a reported Population Hoechst High Intensity Objects (%) of at least 7%?
Result: criterion not met

Problem: Does Cc1c(-c2ccc(O)cc2)n(Cc2ccc(OCCN3CCCCCC3)cc2)c2ccc(O)cc12 [BAZEDOXIFENE] have a reported Population Hoechst High Intensity Objects (%) of at least 7%?
Result: criterion met

Problem: Does `Cc1[nH]c(/C=C2\C(=O)Nc3ccc(S(=O)(=O)N(C)c4cccc(Cl)c4)cc32)c(C)c1C(=O)N1CCN(C)CC1` have a reported Population Hoechst High Intensity Objects (%) of at least 7%?
Result: criterion met

Problem: Does CN(C)C(=O)N[C@H]1CC[C@H](CCN2CCN(c3cccc(Cl)c3Cl)CC2)CC1.Cl [CARIPRAZINE HYDROCHLORIDE] have a reported Population Hoechst High Intensity Objects (%) of at least 7%?
Result: criterion met
